// data source = patent US20240050329A1

Examples of molecules with documented Sol-gel transition pH follow.
- protocol.description: Solution-gel (sol-gel) transition of each peptide
- Format: physicochemical
- Excerpt: In compositions, the influence of pH of 3 to 9, ionic strength of about 0 M to about 5 M salt concentration (for example, ZnCl2, NaCl etc.) via addition of any monovalent and/or divalent cation or temperature plays a critical role in preventing the self-assembly in formulation. In compositions, the pH maybe in the range of about 3 to 9. […]
Where a SMILES comes first, the peptide text is derived from it.
Lab note: record the figure alone, no unit after it.

Observe how each entry below is paired with its result.
molecule	Sol-gel transition pH
CCCCCCCCCCCCCCCC(=O)N[C@@H](CCCCN)C(=O)N[C@H](C(=O)N[C@H](C(=O)N[C@@H](CCCCN)C(=O)N[C@@H](CO)C(=O)O)[C@@H](C)O)[C@@H](C)O [PAL-KTTKS, Palmitoyl pentapeptide-4] (HELM PEPTIDE1{[CCCCCCCCCCCCCCCC(=O)[*:2]].K.T.T.K.S}$$$$V2.0)	5
CC[C@H](C)[C@H](N)C(=O)N[C@@H](CCC(=O)O)C(=O)N[C@H](C(=O)N[C@@H](CCCCN)C(=O)N[C@H](C(=O)N[C@@H](CCC(=O)O)C(=O)N[C@H](C(=O)N[C@@H](CCCCN)C(=O)N[C@H](C(=O)N[C@@H](CCC(=O)O)C(=O)N[C@H](C(=O)N[C@@H](CCCCN)C(=O)N[C@H](C(N)=O)[C@@H](C)CC)[C@@H](C)CC)[C@@H](C)CC)[C@@H](C)CC)[C@@H](C)CC)[C@@H](C)CC [IEIKIEIKIEIKI, IEK-13]	3
CCCCCCCCCCCCCCCC(=O)N[C@H](C(=O)NCC(=O)N[C@H](C(=O)N[C@@H](C)C(=O)N1CCC[C@H]1C(=O)NCC(=O)O)C(C)C)C(C)C [PAL-VGVAPG, Palmitoyl hexapeptide] (HELM PEPTIDE1{[CCCCCCCCCCCCCCCC(=O)[*:2]].V.G.V.A.P.G}$$$$V2.0)	7

We next turn to a different molecule, shown below.
[in] State its Sol-gel transition pH: C[C@H](NC(=O)[C@H](CC(=O)O)NC(=O)[C@H](C)NC(=O)[C@H](CCCNC(=N)N)NC(=O)[C@H](C)NC(=O)[C@H](CC(=O)O)NC(=O)[C@H](C)NC(=O)[C@H](CCCNC(=N)N)NC(=O)[C@H](C)NC(=O)[C@H](CC(=O)O)NC(=O)[C@H](C)NC(=O)[C@H](CCCNC(=N)N)NC(=O)[C@H](C)NC(=O)[C@H](CC(=O)O)NC(=O)[C@H](C)NC(=O)[C@@H](N)CCCNC(=N)N)C(=O)O [RADARADARADARADA, RADA 16]
[out] 7

---

- protocol.description: Solution-gel (sol-gel) transition of each peptide
- Type: physicochemical
- condition.summary: w/w of the composition
Where a SMILES comes first, the peptide text is derived from it.
observation.type: C0 for sol-gel transition by weight of the composition (w/w) (%)
Just the number in %, nothing appended.

Observe how each entry below is paired with its result.
molecule	recorded.measurement
CCCCCCCCCCCCCCCC(=O)N[C@@H](CCCCN)C(=O)N[C@H](C(=O)N[C@H](C(=O)N[C@@H](CCCCN)C(=O)N[C@@H](CO)C(=O)O)[C@@H](C)O)[C@@H](C)O [PAL-KTTKS, Palmitoyl pentapeptide-4] (HELM PEPTIDE1{[CCCCCCCCCCCCCCCC(=O)[*:2]].K.T.T.K.S}$$$$V2.0)	0.5
CC[C@H](C)[C@H](N)C(=O)N[C@@H](CCC(=O)O)C(=O)N[C@H](C(=O)N[C@@H](CCCCN)C(=O)N[C@H](C(=O)N[C@@H](CCC(=O)O)C(=O)N[C@H](C(=O)N[C@@H](CCCCN)C(=O)N[C@H](C(=O)N[C@@H](CCC(=O)O)C(=O)N[C@H](C(=O)N[C@@H](CCCCN)C(=O)N[C@H](C(N)=O)[C@@H](C)CC)[C@@H](C)CC)[C@@H](C)CC)[C@@H](C)CC)[C@@H](C)CC)[C@@H](C)CC [IEIKIEIKIEIKI, IEK-13]	2

[in] State its C0 for sol-gel transition by weight of the composition (w/w): CC(C)C[C@H](NC(=O)[C@H](CC(=O)O)NC(=O)[C@H](CC(C)C)NC(=O)[C@H](CCCCN)NC(=O)[C@H](CC(C)C)NC(=O)[C@H](CC(=O)O)NC(=O)[C@H](CC(C)C)NC(=O)[C@H](CCCCN)NC(=O)[C@H](CC(C)C)NC(=O)[C@H](CC(=O)O)NC(=O)[C@H](CC(C)C)NC(=O)[C@@H](N)CCCCN)C(N)=O [KLDLKLDLKLDL, KLD-12] (H-KLDLKLDLKLDL-NH2)
[out] 2

[in] State its C0 for sol-gel transition by weight of the composition (w/w): C[C@H](NC(=O)[C@H](CC(=O)O)NC(=O)[C@H](C)NC(=O)[C@H](CCCNC(=N)N)NC(=O)[C@H](C)NC(=O)[C@H](CC(=O)O)NC(=O)[C@H](C)NC(=O)[C@H](CCCNC(=N)N)NC(=O)[C@H](C)NC(=O)[C@H](CC(=O)O)NC(=O)[C@H](C)NC(=O)[C@H](CCCNC(=N)N)NC(=O)[C@H](C)NC(=O)[C@H](CC(=O)O)NC(=O)[C@H](C)NC(=O)[C@@H](N)CCCNC(=N)N)C(=O)O [RADARADARADARADA, RADA 16]
[out] 2

[in] State its C0 for sol-gel transition by weight of the composition (w/w): CCCCCCCCCCCCCCCC(=O)N[C@H](C(=O)NCC(=O)N[C@H](C(=O)N[C@@H](C)C(=O)N1CCC[C@H]1C(=O)NCC(=O)O)C(C)C)C(C)C [PAL-VGVAPG, Palmitoyl hexapeptide] (HELM PEPTIDE1{[CCCCCCCCCCCCCCCC(=O)[*:2]].V.G.V.A.P.G}$$$$V2.0)
[out] 1
